Entries and their measured RP-LC retention time follow.
Assay: gradient 5% acetonitrile 3 min, to 50% in 2 min, to 85% in 15 min, held 3 min, 100 µL/min
Conditions: column: Zorbax Extend-C18 2.1 x 50 mm; eluents: water / acetonitrile, 0.1% formic acid
OUTCOME MEASURE: RP-LC retention time (s)

CCCNC(=O)C1CCCN(c2nc3ncn(CC(=O)Nc4ccc5c(c4)OCO5)c(=O)c3s2)C1 (stereo not drawn) = 640
c1ccc(-c2nc[nH]c2-c2ccccc2)cc1 = 696
COc1ccc(-c2coc3cc(OC(=O)N(C)C)cc(O)c3c2=O)cc1OC = 858
CCOC(=O)CC1(NC(=O)N2CCc3c(c(C(=O)N4CCCC4)nn3C)C2)CCCCC1 = 764
Cc1c(N2C(=O)[C@@H]3[C@H](O)CCN3C2=O)ccc(C#N)c1Cl = 765
COc1ccccc1C1(CNS(=O)(=O)c2cccc(Cl)c2C)CCOCC1 = 969
C=C[C@H]1CN2CC[C@H]1C[C@@H]2[C@@H](O)c1ccnc2ccc(OC)cc12 = 616
COc1ccc(NC(=O)N2CCN(CC(=O)c3c(C)n(C)c4ccccc34)CC2)cc1 = 656
COc1ccc(NC(=O)N2CCN(Cc3nc4cc(-c5ccccc5)ccc4o3)CC2)cc1 = 823
O=C(NCCn1nc(-c2ccc(Cl)cc2)ccc1=O)c1csc(-c2ccccc2)n1 = 854
CN1C(=O)CCc2cc(NC(=O)C3CCC3)ccc21 = 668
Cc1nccn1Cc1nc(-c2ccc(Br)cc2)no1 = 663
CCOC(=O)c1cccc(Nc2c(-c3ccc4c(c3)OCO4)nc3cnccn23)c1 = 834
O=C(Nc1cccc(Cl)c1)c1c(O)c2cccnc2n(-c2cccc(F)c2)c1=O = 1360
O=C(NC1CC1)c1cccc2c1CCN2C(=O)C1CC1 = 649
COCCN1CCC(N2CCN(S(=O)(=O)c3ccccc3Cl)CC2)C1=O (stereo not drawn) = 567
CCc1nnc(-c2cc(NC(=O)Cc3c[nH]c4ccccc34)c(C)s2)o1 = 720
CC(C)CCNC(=O)C1CCN(c2nc3ccsc3c(=O)n2-c2ccccc2)CC1 = 838
Cc1nn(-c2cc(N3CCOCC3)ncn2)c(C)c1CCC(=O)NCc1ccco1 = 711
COC1CN(c2ccc(C)cc2)C12CCN(C(=O)C1(c3ccccc3)CC1)CC2 (stereo not drawn) = 1100
COc1ccc(Nc2c(-c3ccc(C(=O)O)cc3)nc3cnccn23)cc1OC = 663
Cc1ccc(NC(=O)Cn2c(N)nc(C)c(C)c2=O)c(C)c1 = 608
CC1CCN(c2cncnc2-n2cc(NC(=O)CC3CCCCC3)cn2)CC1 = 1030
COc1ccc(Cl)cc1C(=O)Nc1ccc(-c2cn3ccc(C)nc3n2)cc1 = 727
COc1cccc(S(=O)(=O)N2CCN(c3cc(C)nc(N4CCOCC4)n3)CC2)c1 = 668
CC(C)c1noc(-c2ccnc(-n3cnc(C(=O)N(C)C4CCCCC4)c3)c2)n1 = 622
CCn1cc(S(=O)(=O)N2CCC(c3noc(COCC4CC4)n3)CC2)cn1 = 841
CCc1ccc(-n2ncc3c(=O)n(Cc4nc(-c5ccc(SC)cc5)no4)cnc32)cc1 = 1210

* * *

Experiment: gradient 5% acetonitrile 3 min, to 50% in 2 min, to 85% in 15 min, held 3 min, 100 µL/min
Details: column: Zorbax Extend-C18 2.1 x 50 mm; eluents: water / acetonitrile, 0.1% formic acid
Each entry belongs to exactly one class, chosen by where its RP-LC retention time falls: zone 1: < 700 s; zone 2: ≥ 700 s and < 800 s; zone 3: ≥ 800 s

CC(=O)Nc1cccc2c(C(=O)NC(C)c3ccc(C)cc3C)ccnc12 (stereo not given) = zone 3
CC(=O)N1CCc2cc(N3CC(C(=O)Nc4cc(F)ccc4Cl)CC3=O)ccc21 (stereo not given) = zone 2
c1cc(-c2noc(C3CC3)n2)ccc1OC1CNC1 = zone 1
CCN(C(=O)Cn1c(C(C)C)nc2c(c1=O)CN(Cc1ccccc1)CC2)c1ccccc1 = zone 2
Cc1nc(NC(=O)C2COCC(=O)N2Cc2ccccc2)sc1C(=O)N(C)C (stereo not given) = zone 1
CCOC(=O)N1CCC(NC(=O)c2cc3sccc3n2Cc2ccc(Cl)cc2)CC1 = zone 3
CC(C)CC(=O)Nc1ccc(S(=O)(=O)N2CCC(c3ccncc3)CC2)cc1 = zone 1
Cc1ccc(-n2ccc(=O)c(-c3nc(-c4ccc(OC(C)C)cc4)no3)n2)cc1 = zone 3
CCC(C)NC(=O)N1CCN(Cc2nc3cc(C(=O)N(CC)CC)ccc3o2)CC1 (stereo not given) = zone 1
O=C1[C@H]2CN(Cc3ccc(F)c(Cl)c3)C[C@H]2C(=O)N1Cc1ccc2c(c1)OCO2 = zone 3
COc1ccc(C)cc1NC(=O)Nc1ccc2c(c1)CCN2S(=O)(=O)c1ccc(C)cc1 = zone 3
Cc1nc(SCC(=O)Nc2ccc(Cl)cc2C(F)(F)F)cc(-c2ccccn2)n1 = zone 3
O=C(O)C1CN(CCCP(=O)(O)O)CCN1 (stereo not given) = zone 1
CCOc1ccc(-c2csc(NC(=O)CCn3c(=O)oc4ccccc43)n2)cc1 = zone 3
COCc1nc(-c2ccc(OC3CCN(Cc4ccc(C(F)(F)F)cc4)C3)cc2)no1 (stereo not given) = zone 2
Cc1cccc(-c2ncccc2CNS(=O)(=O)Cc2cccc(F)c2)c1 = zone 2
